Value source: patent US8362065B2

A collection of molecules and their measured IC50
Molecular target: human recombinant Btk (Homo sapiens)
Sequence (Q06187 whole entry): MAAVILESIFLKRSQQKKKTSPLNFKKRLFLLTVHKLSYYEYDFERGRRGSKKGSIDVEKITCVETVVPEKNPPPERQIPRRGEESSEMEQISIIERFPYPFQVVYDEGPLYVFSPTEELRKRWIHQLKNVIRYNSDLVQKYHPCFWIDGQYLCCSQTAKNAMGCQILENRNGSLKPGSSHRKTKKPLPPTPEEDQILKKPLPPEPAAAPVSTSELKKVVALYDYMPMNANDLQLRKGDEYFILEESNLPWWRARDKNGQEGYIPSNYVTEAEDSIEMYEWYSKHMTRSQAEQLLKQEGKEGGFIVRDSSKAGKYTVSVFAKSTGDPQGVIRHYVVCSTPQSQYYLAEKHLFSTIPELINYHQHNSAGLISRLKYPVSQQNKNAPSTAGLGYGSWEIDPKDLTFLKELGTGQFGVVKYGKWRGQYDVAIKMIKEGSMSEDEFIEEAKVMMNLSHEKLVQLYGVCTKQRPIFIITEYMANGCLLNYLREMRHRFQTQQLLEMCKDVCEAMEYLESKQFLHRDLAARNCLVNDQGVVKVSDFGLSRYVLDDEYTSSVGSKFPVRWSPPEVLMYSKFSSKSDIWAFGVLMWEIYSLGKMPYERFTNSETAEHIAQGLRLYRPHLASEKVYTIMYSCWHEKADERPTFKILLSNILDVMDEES
Assay: Human Recombinant Btk Enzyme Assay
Conditions: human recombinant Btk 1 nM, ATP 20 μM, 60 min at room temperature; read-out: IC50 for Inhibition of Btk

CN1CCN(C(=O)c2ccc3c(c2)[nH]c2c(C(N)=O)ccc(-c4ccccc4Cl)c23)CC1 [Example 3-69] = 15 nM
Cc1c(-c2ccc(C(N)=O)c3[nH]c4c(c23)CCC(C(C)(C)O)C4)cccc1-n1c(C)nc2ccccc2c1=O (stereo not shown) [Example 76-10] = 18 nM
Cc1c(-c2ccc(C(N)=O)c3[nH]c4cc(C(C)(C)O)ccc4c23)cccc1-n1ccn2ccnc2c1=O [Example 76-2] = 1.3 nM

Cc1c(Nc2ncnc3cc(F)ccc23)cccc1-c1ccc(C(N)=O)c2[nH]c3cc(N4CCCC4=O)ccc3c12 [Example 79-4] on human recombinant Btk (Homo sapiens) gives IC50 = 16 nM

----------
Molecular target: human recombinant Btk (Homo sapiens)
Assay: Human Recombinant Btk Enzyme Assay
Settings: human recombinant Btk 1 nM, ATP 20 μM, 60 min at room temperature; read-out: IC50 for Inhibition of Btk
Where a name gives a salt, the structure may show the parent alone.
Kindly apply the following: y if IC50 is less than 2 nM, n in every other case.

# count of solved cases: 3
Cc1c(NC(=O)CC(C)C)cccc1-c1ccc(C(N)=O)c2[nH]c3cc(C(=O)N4CCN(C)CC4)ccc3c12 [Example 5-62, TFA salt] = n
Cc1ccc2c(c1)C(=O)N(c1cccc(-c3ccc(C(N)=O)c4[nH]c5cc(N6CCC(C)(C)C6=O)ccc5c34)c1C)C2 = n
Cc1c(-c2ccc(C(N)=O)c3[nH]c4cc(C(O)CO)ccc4c23)cccc1N1Cc2ccc(F)cc2C1=O (centres unmarked) [Example 70-9] = y

Req: Input Cc1c(NC(=O)c2ncc[nH]2)cccc1-c1ccc(C(N)=O)c2[nH]c3cc(C(=O)N4CCN(C)CC4)ccc3c12 [Example 5-9, TFA salt] ; condition: IC50 strictly below 2 nM. Does it hold?
Resp: y

Req: Dear colleague, could you confirm whether IC50 of Cc1c(-c2ccc(C(N)=O)c3[nH]c4c(c23)CCC(C(=O)NCCCN(C)C)C4)cccc1N1Cc2ccccc2C1=O (centres unmarked) falls below 2 nM? Thanks.
Resp: n

Req: Identify whether the compound Cc1c(-c2ccc(C(N)=O)c3[nH]c4cc(CN)ccc4c23)cccc1N1Cc2ccccc2C1=O records IC50 below 2 nM.
Resp: y

Req: Answer whether the compound Cc1c(-c2ccc(C(N)=O)c3[nH]c4cc(C(C)(C)O)ccc4c23)cccc1N1Cc2ccc(F)cc2C1=O has IC50 strictly less than 2 nM
Resp: n

Req: # strict comparison: is reported IC50 < 2 nM? input = CN1CCN(C(=O)c2ccc3c(c2)[nH]c2c(C(N)=O)ccc(-c4ccccc4)c23)CC1
Resp: n

Req: Does this compound meet the criterion IC50 < 2 nM? COc1ccc2c(c1)CN(c1cccc(-c3ccc(C(N)=O)c4[nH]c5cc(C(C)(C)O)ccc5c34)c1C)C2=O
Resp: n

Req: Dear colleague, could you confirm whether IC50 of Cc1c(NC(=O)C(C)(C)c2ccc(Cl)cc2)cccc1-c1ccc(C(N)=O)c2[nH]c3cc(C(=O)N4CCN(C)CC4)ccc3c12 falls below 2 nM? Thanks.
Resp: n

Req: Hello, is IC50 of the following compound strictly smaller than 2 nM? Cc1c(-c2ccc(C(N)=O)c3[nH]c4cc(C(C)(C)O)ccc4c23)cccc1N1Cc2ccncc2C1=O
Resp: y

Req: A record lists Cc1c(NC(=O)c2ccc(F)cc2)cccc1-c1ccc(C(N)=O)c2[nH]c3cc(N(Cc4ccccc4)Cc4ccccc4)ccc3c12 . Is its IC50 below 2 nM?
Resp: n

Req: Here's an entry: Cc1ccc2c(c1)CN(c1cncc(-c3ccc(C(N)=O)c4[nH]c5cc(NC(C)C)ccc5c34)c1C)C2=O . Is its IC50 below 2 nM?
Resp: n
